In this section, each of the compounds is paired with its reported DC50.
Tested system: AR (androgen receptor) protein in VCaP cells (Homo sapiens, UniProt P10275)
Construct: endogenous in cells; host or cells: VCaP cells
Sequence (P10275 whole entry): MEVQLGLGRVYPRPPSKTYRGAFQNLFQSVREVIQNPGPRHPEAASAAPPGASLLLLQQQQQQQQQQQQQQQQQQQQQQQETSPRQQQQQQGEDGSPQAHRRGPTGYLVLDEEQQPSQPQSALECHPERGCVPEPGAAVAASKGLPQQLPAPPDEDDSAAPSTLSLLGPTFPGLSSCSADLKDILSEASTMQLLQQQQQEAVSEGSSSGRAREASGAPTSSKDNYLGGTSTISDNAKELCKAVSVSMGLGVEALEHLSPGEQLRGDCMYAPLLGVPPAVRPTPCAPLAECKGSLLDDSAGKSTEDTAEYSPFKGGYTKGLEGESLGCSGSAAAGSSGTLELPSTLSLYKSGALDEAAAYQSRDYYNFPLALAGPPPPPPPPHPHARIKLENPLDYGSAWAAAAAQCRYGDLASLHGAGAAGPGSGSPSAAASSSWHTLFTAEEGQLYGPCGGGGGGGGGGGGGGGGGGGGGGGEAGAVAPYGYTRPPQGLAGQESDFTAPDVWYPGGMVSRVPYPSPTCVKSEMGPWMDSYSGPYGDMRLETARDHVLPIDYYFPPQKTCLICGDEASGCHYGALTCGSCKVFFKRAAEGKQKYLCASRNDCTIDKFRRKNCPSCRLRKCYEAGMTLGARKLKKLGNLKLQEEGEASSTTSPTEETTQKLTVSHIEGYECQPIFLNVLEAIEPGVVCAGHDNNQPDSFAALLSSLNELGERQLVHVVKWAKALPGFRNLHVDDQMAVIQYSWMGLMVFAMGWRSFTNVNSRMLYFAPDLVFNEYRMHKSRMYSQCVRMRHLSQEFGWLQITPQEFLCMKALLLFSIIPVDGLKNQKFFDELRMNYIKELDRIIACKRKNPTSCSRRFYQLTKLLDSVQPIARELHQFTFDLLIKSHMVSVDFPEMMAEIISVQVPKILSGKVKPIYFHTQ
Run description: VCAP AR Degradation Assay
Format: cell-based
Condition context: 24 h, AR ELISA, concentration of compound when AR level = 50% of DMSO control
Description: VCAP AR Degradation Assay. Test compounds were pre-dispensed into a Corning CellBind 96-well clear bottom plate (Cat #3300) using an acoustic dispenser to make a 10-point concentration series at 1:3 dilution for each compound. The final top concentration of each compound was 5 μM. DMSO at a final concentration of 0.1% was used as a control. […] AR levels in compound-treated wells were normalized to that of DMSO control and expressed as percent of control (PoC) (y). […]
Where a name gives a salt, the structure may show the parent alone.

Solved cases below.
Compound	DC50
C[C@@H]1CN(CCC[C@H]2CC[C@H](N3C(=S)N(c4ccc(C#N)c(Cl)c4)C(=O)C3(C)C)CC2)C[C@H](C)N1CC(=O)Nc1cccc2c(C3CCC(=O)NC3=O)nn(C)c12 (some centres unmarked)	5 to 20 nM
Cn1nc(C2CCC(=O)NC2=O)c2cccc(NC(=O)CN3CCN(CCO[C@H]4CC[C@H](N5C(=S)N(c6cnc(C#N)c(C(F)(F)F)c6)C(=O)C5(C)C)CC4)C[C@@H]3C(F)(F)F)c21 (some centres unmarked)	< 2 nM
C[C@@H]1C[C@H](OCC[C@H]2CC[C@H](N3C(=S)N(c4cnc(C#N)c(C(F)(F)F)c4)C(=O)C3(C)C)CC2)C[C@H](C)N1CC(=O)Nc1cccc2c(C3CCC(=O)NC3=O)nn(C)c12 (some centres unmarked)	2 to 5 nM
C[C@@H]1C[C@H](OCC[C@H]2CC[C@H](N3C(=S)N(c4ccc(C#N)c(C(F)(F)F)c4)C(=O)C3(C)C)CC2)C[C@H](C)N1CC(=O)Nc1cccc2c(C3CCC(=O)NC3=O)nn(C)c12 (some centres unmarked)	5 to 20 nM

Now examine the next entry.
The measured DC50 associated with C[C@@H]1CN(CCCO[C@H]2CC[C@H](N3C(=S)N(c4ccc(C#N)c(Cl)c4)C(=O)C3(C)C)CC2)C[C@H](C)N1CC(=O)Nc1cccc2c(C3CCC(=O)NC3=O)nn(C)c12 (some centres unmarked) [Cmpd 5, hydrochloride] reads < 2 nM

Data origin: patent US12227490B2
